// data source = ChEMBL document CHEMBL4257446

System: MDA-MB-231
Experiment: Antiproliferative activity against human MDA-MB-231 cells after 24 hrs by MTT assay
Type: functional, cell-based
Details: MDA-MB-231, 24 h
MEASUREMENT_NAME: IC50 (µM)

Examples with answers:
COc1ccc(-c2cc(/C=C/C(=O)c3ccc(C)cc3)nc3cc(-c4ccccc4)nn23)cc1OC; 19.8
COc1cc(C(=O)/C=C/c2cc(-c3cc(OC)c(OC)c(OC)c3)n3nc(-c4ccccc4)cc3n2)cc(OC)c1OC; 24.3
COc1cc(-c2cc(/C=C/C(=O)c3ccc(C)cc3)nc3cc(-c4ccccc4)nn23)cc(OC)c1OC; 23.9
COc1cc(-c2cc(C(=O)/C=C/c3ccc(C)cc3)nc3cc(-c4ccccc4)nn23)cc(OC)c1OC; 18.6
COc1ccc(-c2cc(/C=C/C(=O)c3ccccc3)nc3cc(-c4ccccc4)nn23)cc1; 9.9
COc1ccc(/C=C/C(=O)c2cc(-c3cc(OC)c(OC)c(OC)c3)n3nc(-c4ccccc4)cc3n2)cc1OC; 14.2

1 = COc1cc(-c2cc(/C=C/C(=O)c3ccc(C)c(C)c3)nc3cc(-c4ccccc4)nn23)cc(OC)c1OC
2 = COc1cc(-c2cc(C(=O)/C=C/c3ccc(Cl)cc3)nc3cc(-c4ccccc4)nn23)cc(OC)c1OC
3 = COc1cc(-c2cc(/C=C/C(=O)c3ccc(Cl)cc3)nc3cc(-c4ccccc4)nn23)cc(OC)c1OC
4 = COc1ccc(-c2cc(/C=C/C(=O)c3cc(OC)c(OC)c(OC)c3)nc3cc(-c4ccccc4)nn23)cc1OC
5 = COc1ccc(-c2cc(/C=C/C(=O)c3ccc(OC)c(OC)c3)nc3cc(-c4ccccc4)nn23)cc1
Prompt line: Please list these in order of increasing IC50. Thank you! To answer, arrange all of the labels according to the requested order.
Response line: 4, 5, 1, 2, 3
(4: 4.7 µM, 5: 8.7 µM, 1: 13.5 µM, 2: 21.6 µM, 3: 32.5 µM)

A = COc1ccc(-c2cc(/C=C/C(=O)c3ccc(C)c(C)c3)nc3cc(-c4ccccc4)nn23)cc1OC
B = COc1ccc(-c2cc(C(=O)/C=C/c3ccc(Cl)cc3)nc3cc(-c4ccccc4)nn23)cc1OC
Prompt line: Identify the entry with the smaller IC50: A or B . Selection: enter the item's label.
Response line: A
